Tested on: human dermal papilla cells (DP)
Experiment: MTT cell viability assay, normal cells
Format: cell-based
Settings: Homo sapiens, Human dermal papilla cell; DP normal cells, 24 h treatment, MTT
measurement label: IC50
The number alone won't do; follow it with the unit.

Exercise: Please tell me the measured IC50 for COC1=C(C)C(=O)C2=C(C1=O)[C@@H]1CN(Cc3ccc4ccccc4c3)[C@@H](C#N)[C@H](C2)N1C [DH_32] ; system: human dermal papilla cells (DP).
Solution: 34.2 µM

----------
Test system: A549 cells
Assay: MTT cell viability assay
Assay type: cell-based, human
Details: A549, 24 h treatment
measurement label: IC50 (µM)
Report only the number, with the unit µM understood.

Exercise: Tell me IC50 reported for CC=C(C)C(=O)OCC1c2c(c(O)c(C)c3c2OCO3)CC2C3C4=C(CC(C(C#N)N12)N3C)C(=O)C(C)=C(OC)C4=O (stereo not shown)
Solution: 5.76
